# Particulars: 298.15 K; 101.33 kPa; Liquid; Vibrating tube method
Recorded metric: mass density (kg/m3)

>>> reading("CCCCn1cc[n+](C)c1.F[B-](F)(F)F [1-butyl-3-methylimidazolium tetrafluoroborate]")
1202.08
>>> reading("CCCCCCn1cc[n+](C)c1.F[B-](F)(F)F [1-hexyl-3-methylimidazolium tetrafluoroborate]")
1146.18
>>> reading("CCCCCCCC[n+]1ccn(C)c1.F[B-](F)(F)F [1-methyl-3-octylimidazolium tetrafluoroborate]")
1103.6
>>> reading("CCn1cc[n+](C)c1.F[B-](F)(F)F [1-ethyl-3-methylimidazolium tetrafluoroborate]")
1280.07

---

# Particulars: 328.15 K; 101.33 kPa; Liquid; Vibrating tube method
Item-by-item account of mass density
Recorded metric: mass density (kg/m3)

>>> reading("CCCCn1cc[n+](C)c1.F[B-](F)(F)F [1-butyl-3-methylimidazolium tetrafluoroborate]")
1180.62
>>> reading("CCCCCCn1cc[n+](C)c1.F[B-](F)(F)F [1-hexyl-3-methylimidazolium tetrafluoroborate]")
1125.18
>>> reading("CCn1cc[n+](C)c1.F[B-](F)(F)F [1-ethyl-3-methylimidazolium tetrafluoroborate]")
1256.89
>>> reading("CCCCCCCC[n+]1ccn(C)c1.F[B-](F)(F)F [1-methyl-3-octylimidazolium tetrafluoroborate]")
1083.22

---

The entries below are paired with their reported electrical conductivity.
# Particulars: 468.15 K; 101.33 kPa; Liquid; Alternating current cell with electrodes
Recorded metric: electrical conductivity (S/m)

>>> reading("CCn1cc[n+](C)c1.F[B-](F)(F)F [1-ethyl-3-methylimidazolium tetrafluoroborate]")
19.3
>>> reading("CCCCn1cc[n+](C)c1.F[B-](F)(F)F [1-butyl-3-methylimidazolium tetrafluoroborate]")
10.9
>>> reading("CCCCCCn1cc[n+](C)c1.F[B-](F)(F)F [1-hexyl-3-methylimidazolium tetrafluoroborate]")
6.69
>>> reading("CCCCCCCC[n+]1ccn(C)c1.F[B-](F)(F)F [1-methyl-3-octylimidazolium tetrafluoroborate]")
4.44

---

# Particulars: 268.1 K; 101.33 kPa; Liquid; Alternating current cell with electrodes
Recorded metric: electrical conductivity (S/m)

>>> reading("CCn1cc[n+](C)c1.F[B-](F)(F)F [1-ethyl-3-methylimidazolium tetrafluoroborate]")
0.423
>>> reading("CCCCCCCC[n+]1ccn(C)c1.F[B-](F)(F)F [1-methyl-3-octylimidazolium tetrafluoroborate]")
0.00605
>>> reading("CCCCCCn1cc[n+](C)c1.F[B-](F)(F)F [1-hexyl-3-methylimidazolium tetrafluoroborate]")
0.0145
>>> reading("CCCCn1cc[n+](C)c1.F[B-](F)(F)F [1-butyl-3-methylimidazolium tetrafluoroborate]")
0.0542

---

Catalogue of electrical conductivity readings, one per entry.
# Particulars: 338.15 K; 101.33 kPa; Liquid; Alternating current cell with electrodes
Recorded metric: electrical conductivity (S/m)

>>> reading("CCCCn1cc[n+](C)c1.F[B-](F)(F)F [1-butyl-3-methylimidazolium tetrafluoroborate]")
1.54
>>> reading("CCCCCCn1cc[n+](C)c1.F[B-](F)(F)F [1-hexyl-3-methylimidazolium tetrafluoroborate]")
0.683
>>> reading("CCn1cc[n+](C)c1.F[B-](F)(F)F [1-ethyl-3-methylimidazolium tetrafluoroborate]")
4.34
>>> reading("CCCCCCCC[n+]1ccn(C)c1.F[B-](F)(F)F [1-methyl-3-octylimidazolium tetrafluoroborate]")
0.368
